Molecular target: T1, hERα-LBD (ligand binding domain of estrogen receptor α) (human, UniProt P03372 297-554)
T1 construct: Assayed with estradiol, diethylstilbestrol, genistein or tamoxifen present; the ligand is named under assay in each row
T1 sequence (looked up): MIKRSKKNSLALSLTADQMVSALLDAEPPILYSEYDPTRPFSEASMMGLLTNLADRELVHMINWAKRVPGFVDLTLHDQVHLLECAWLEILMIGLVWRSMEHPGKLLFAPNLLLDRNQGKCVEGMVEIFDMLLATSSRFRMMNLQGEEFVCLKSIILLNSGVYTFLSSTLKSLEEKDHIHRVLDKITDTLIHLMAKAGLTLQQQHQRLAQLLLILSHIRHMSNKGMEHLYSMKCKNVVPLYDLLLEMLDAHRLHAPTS
Test: fluorescence polarization, hERα-LBD titrated, estradiol present; repeats Table 4
Ends that are not written are not given here.
Measured Property: Kd (nM)
One number for each entry, in nM.

What measured Kd goes with C(5‑iodoacetamidofluorescein)ESKGHKKLLQLLTCSSDDR (The peptide has a second, internal Cys) [SRC3-1 coregulator peptide] ?
160
